system: SK-MEL-5 melanoma; test: NCI tumour cell line growth inhibition, 48 h; in the data active means GI50 below about 0.43 µM; inactive means the rest
Assign a class; possible classes are T (active), F (inactive)

Record excerpt, results attached:
Query block: Lab log entry: Cc1cc(N(CCNc2ccnc3cc(Cl)ccc23)Cc2cccs2)nc(Cl)n1 — outcome as called in the assay?
Result block: F

Query block: // return assay outcome for C=C1C(=O)O[C@H]2[C@H]1CC/C(COC(=O)/C=C\C(=O)NCc1ccc(Cn3c(=O)sn(CCCI)c3=O)cc1)=C\CC[C@@]1(C)O[C@@H]21
Result block: F

Query block: Which outcome did this test record for the molecule O=c1ccc2nc(C(F)(F)F)nn(-c3ccccc3)c-2c1 ?
Result block: F

Query block: Assay result, entry COc1ccc2c(c1)NC(=O)CN2c1nc(NC2CC2)nc2ccccc12 — outcome?
Result block: T

Query block: Please state the recorded outcome for this molecule: COc1ccc2c(c1)[n+]([O-])c(C#N)c(NC(=O)c1cccs1)[n+]2[O-]
Result block: F

Next:
Query block: Could you check what this test reported for CCOC(=O)/C=C1/SC(N2CCCCC2)C(=O)N1CC (centres undefined) ?
Result block: F

Query block: Hi, do you know how C=CC(=O)N1C[C@H](COc2nc(Nc3cnn(C)c3)nc3[nH]cc(Cl)c23)[C@@H](OC)C1 came out in this test?
Result block: F

Query block: Given COc1cc(-c2csc(NC(=O)Nc3ccc(Cl)c(C(F)(F)F)c3)n2)cc(OC)c1OC , state the outcome it received in this test.
Result block: F

Query block: Test call for this molecule, please: [Cl-].[Nd+3].[O-]/N=C(\c1ccccc1)c1ccccn1.[O-]/N=C(\c1ccccc1)c1ccccn1.[O-]/N=C(\c1ccccc1)c1ccccn1
Result block: F

----------
# reported TGI; entries follow
tested on: OVCAR-5 ovarian; assay: NCI tumour cell line growth inhibition, 48 h

Please review the entries below; each comes with its answer.
Measured on OVCAR-5 ovarian, CCOC(=O)c1cn2c(n1)sc1cc(C)c(C)cc12 has a documented TGI of 36.4 µM

Form: item OCCCNCc1ccncc1 ; test system OVCAR-5 ovarian; TGI: > 100 µM

The reported TGI value, OVCAR-5 ovarian, for CCc1cccc(C)c1NC(=O)CC(=O)NNC(N)=S reads > 100 µM

Tested system OVCAR-5 ovarian; TGI recorded for CCOP(=O)(OCC)/C(C#N)=C\c1ccc(OC(C)=O)cc1 was > 100 µM

Lab entry: OVCAR-5 ovarian assay, compound O=CC1=C(C(=O)OC(c2ccccc2)c2ccccc2)N2C(=O)[C@@H](NC(=O)Cc3cccs3)[C@H]2SC1 , TGI = > 100 µM

New cases:
O=C(/C=C/c1ccc(Br)cc1)c1ccc(NCc2nc3ccccc3[nH]2)cc1 on OVCAR-5 ovarian gives TGI = > 100 µM

----------
tested on: U251 CNS
Answer with one of the outcomes given here: true (active), false (inactive)

Use the examples below as a reference point.
Query block: Please indicate how the test categorized O=[N+]([O-])c1ccc2c(c1)C(=NO)c1cc([N+](=O)[O-])ccc1-2 .
Result block: false

Query block: Tell me the assay call for O=Cc1cn(Cc2ccc(Cl)cc2)c2ccccc12 please.
Result block: false

Query block: Which outcome was entered for the compound Cc1cc(Nc2ccc3c(c2)OCO3)c2cc3c(cc2n1)OCO3 in this test?
Result block: false

Query block: # outcome recorded in this test, key = OCc1ccc(N(Cc2ccc(F)cc2)CC2CC2)cc1Cl
Result block: false

Query block: Record lookup: outcome of this test for O=C(N/N=C/c1c(Cl)cccc1Cl)c1cccnc1Nc1cccc(C(F)(F)F)c1 ?
Result block: false

New cases:
Query block: Per the records of this test, what outcome belongs to C[C@]12CCC(=O)CC1CC[C@@H]1C2CC[C@@]2(C)C1CC[C@@H]2OC(=O)CC[Se][Se]CCC(=O)O[C@H]1CCC2[C@@H]3CCC4CC(=O)CC[C@]4(C)C3CC[C@@]21C (some centres undefined) ?
Result block: false

Query block: Kindly provide the recorded test outcome for the following compound: Cc1ccc(NC2=N[C@]34CC(=O)CC[C@]3(C)[C@H]3CC[C@]5(C)C(=O)CC[C@H]5[C@@H]3C[C@@H]4S2)c(C)c1
Result block: false

Query block: Dear colleague, could you share the recorded outcome for C=CC(=O)N1C[C@H](COc2nc(Nc3cnn(C)c3)nc3[nH]cc(Cl)c23)[C@@H](OC)C1 when you have a moment?
Result block: false

Query block: I'd appreciate the recorded outcome for O=C1N[C@@H]2[C@@H](O)[C@@H](O)[C@H](O)C[C@H]2c2cc3c(c(O)c21)OCO3 from this test.
Result block: true

----------
tested on: OVCAR-8 ovarian; assay: NCI tumour cell line growth inhibition, 48 h
endpoint: TGI

Reference set, count: 10
TGI for O=c1[nH]c2[nH]c(-c3ccc(Br)cc3)cc2c2ccccc12 is > 100 µM

# TGI (compound: COC1(OC)CC(CO)(CNc2nc(N)nc(Cl)c2C=O)C1 ) is > 100 µM

// CC1(C)CN=C(Nc2ccc(F)cc2)S1 : TGI value = > 100 µM

TGI reported for this compound CN(C)CCCn1c2c(c3ccc(-c4ccn[nH]4)cc3c1=O)C(=O)c1ccccc1-2 : 2.27 µM

Entry CCCN(CCC)c1ccc(CO)c(Cl)c1 ; TGI = > 100 µM

Short answer for COc1cc2c[n+](C)c3c4cc(OC)c(OC)cc4c(OCc4ccccc4)cc3c2cc1OC : TGI was 5.02 µM

Form field TGI, entry Cc1ccc(NC2=N[C@]34CC(=O)CC[C@]3(C)[C@H]3CC[C@]5(C)C(=O)CC[C@H]5[C@@H]3C[C@@H]4S2)c(C)c1 : 7.26 µM

For Cc1cc(N(CCNc2ccnc3cc(Cl)ccc23)Cc2cccs2)nc(Cl)n1 the compound record lists TGI as 5.33 µM

Consider Cc1nc(N)nn1C1OCC(O)C(O)C1O (configuration not stated) . Its measured TGI is > 100 µM

TGI in this record for O=[N+]([O-])c1ccc(-c2noc(-c3ccccc3)c2C2=NCCN2)cc1 : > 100 µM

---
Lab book: TGI of CSc1ncnc2c1cnn2Cc1cn(CCCCO)nn1 noted as > 100 µM

Consider O=C(/C=C/c1ccc(Br)cc1)c1ccc(NCc2nc3ccccc3[nH]2)cc1 . Its measured TGI is > 52.6 µM

The compound listed as Cc1nn(C(=O)c2ccccc2O)c2c1C(c1ccco1)SC(N)=N2 (configuration not stated) has a reported TGI of > 10 µM

For this compound ( CCOC(=O)/C(C#N)=C/c1ccc(SCc2ccco2)c([N+](=O)[O-])c1 ), measured TGI is > 100 µM

O=C(O)CSc1ccc(N=C=S)cc1 has a reported TGI of > 100 µM

Quick note, TGI for [Cl-].[Nd+3].[O-]/N=C(\c1ccccc1)c1ccccn1.[O-]/N=C(\c1ccccc1)c1ccccn1.[O-]/N=C(\c1ccccc1)c1ccccn1 landed at > 100 µM

Measured TGI, c1ccc2c(c1)CCN2CCN1CCc2ccccc21 : > 10 µM

The compound listed as CC(=O)N(O)CCCCCNC(=O)CCC(=O)N(O)CCCCCNC(=O)CCC(=O)N(O)CCCCCN shows TGI equal to > 100 µM

So for Cc1ccc(S(=O)(=O)NC(C(=O)O)C(C)C)cc1 (configuration not stated) , the logged TGI turned out to be > 100 µM

----------
tested on: SK-MEL-5 melanoma; experiment: NCI tumour cell line growth inhibition, 48 h
endpoint: TGI (µM)
Express the result in µM but write the number alone.

Memo: O=CN/N=C/c1ccc(Cl)c([N+](=O)[O-])c1 , reported TGI: 3.7

What the record says about CCOC(=O)c1ccc(NC(=O)O/N=C(/Cl)CC)cc1 : TGI is 29.5

Next:
Noted for CN1CCN(CC(=O)N2c3ccccc3Sc3cc4ccccc4cc32)CC1 : its TGI reads 34.7

# TGI (compound: NCCc1ccc2oc3cc(=O)c4ccccc4c-3nc2c1 ) is 2.13

So, CC1OC(OC2C(O)CC(OC3C(O)CC(OC4CCC5(C)C(CCC6C5CCC5(C)C(C7=CC(=O)OC7)CCC65O)C4)OC3C)OC2C)CC(O)C1O (stereo unspecified) ? Its TGI was 0.0624

----------
tested on: RPMI-8226 leukemia; experiment: NCI tumour cell line growth inhibition, 48 h; in the data active means GI50 below about 0.43 µM; inactive means the rest
Permitted responses: active, inactive

Worked cases, answers included:
Query block: Hi, sorry to bother you, what did the test record for C=C1C(=O)O[C@H]2[C@H]1CC/C(COC(=O)CCCC(=O)OC/C1=C/CC[C@@]3(C)O[C@H]3[C@H]3OC(=O)C(=C)[C@@H]3CC1)=C\CC[C@@]1(C)O[C@@H]21 ?
Result block: active

Query block: Dear colleague, could you share the recorded outcome for CCOC(=O)c1nnn(-c2no[n+]([O-])c2-c2ccc(OC)cc2)c1COc1cccc2cccnc12 when you have a moment?
Result block: inactive

Query block: Outcome logged for CCCCCCCC(=O)SCC/C=C/[C@@H]1CC(=O)NCc2cccc(n2)CN(Cc2ccc3ccccc3c2)CC(=O)N[C@@H](C(C)C)C(=O)O1 in this assay:
Result block: inactive

Query block: What call does the record list for COc1ccc(N2CCN(C(=O)c3ccc(C(F)(F)F)nc3Nc3cc(Cl)ccc3C)CC2)cc1 ?
Result block: inactive

Query block: Fill in: this test's call for COC(=O)C1=CN(CC2=CC(=O)C(C)=CC2=O)C=C(C(=O)OC)C1c1cc(OC)ccc1OC is ___
Result block: inactive

Query block: Outcome? COc1ccc2nc3cccc([N+](=O)[O-])c3c(NCCNCCO)c2c1
Result block: active

More entries:
Query block: What did the test return for O=S(=O)(Nc1ccc(Cl)cc1)c1ccc(-c2cnc(C3CC3)o2)cc1 ?
Result block: inactive

Query block: For Cn1cc(-c2ccc(-c3cn(C)c4ccc(Cl)cc34)[nH]2)c2cc(Cl)ccc21 , which call appears in the assay record?
Result block: active

Query block: // param item: COc1ccc2c(c1)NC(=O)CN2c1nc(NC2CC2)nc2ccccc12 ; yields the recorded call
Result block: active

Query block: Entry CC(C)=CC(=O)OC1C(CO)OC(Oc2cc(O)c3c(=O)cc(-c4ccc(O)c(O)c4)oc3c2)C(OC2OC(C)C(O)C(O)C2O)C1O (stereo not drawn) : call = ?
Result block: inactive
